This collection of values is drawn from paper PMC10539501.

Experiment: PAMPA passive permeability;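 note: passive permeability across an artificial membrane in 96-well pre-coated PAMPA plates, which lack transporters and efflux systems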
Type: in vitro ADME
Details: Pe Avg
Starred links: 1 amine or outer side, 2 acyl side, 3 side chain; linkers in the order of their positions; H or OH if unused. Non-standard residues stand in square brackets, D forms with d. Residues, ends and D or L forms follow the SMILES beside them. X6 = O=C([C@H](Cc1ccc(O)cc1)NC(=S)[C@H]1CCCN1[*:1])[*:2]; X17 = CC[C@H](C)[C@H](N[*:1])C(=S)N1CCC[C@H]1C(=O)[*:2]; NMeL = CN[C@@H](CC(C)C)C(=O)O

| compound | result-units | Papp |
| --- | --- | --- |
| CC(C)C[C@@H]1NC(=O)[C@H](Cc2ccc(O)cc2)NC(=O)[C@H]2CCCN2C(=O)[C@H](CC(C)C)N(C)C(=O)[C@H](CC(C)C)NC(=O)[C@@H](CC(C)C)NC1=O [10i] (cyclo(L[NMeL][dP]YL[dL])) | ×10⁻⁶ cm/s | 3.2 |
| CC(C)C[C@@H]1NC(=O)[C@H](Cc2ccc(O)cc2)NC(=O)[C@H]2CCCN2C(=O)[C@H](CC(C)C)NC(=O)[C@H](CC(C)C)N(C)C(=O)[C@@H](CC(C)C)NC1=O [10h] (cyclo(L[dL][NMeL]L[dP]Y)) | ×10⁻⁶ cm/s | 9.07 |
| CC[C@H](C)[C@@H]1NC(=O)[C@@H]2CCCN2C(=S)[C@H]([C@@H](C)CC)NC(=O)[C@@H]2CCCN2C(=O)[C@H](Cc2ccccc2)NC(=O)[C@H](C)NC(=O)[C@H](C)NC1=O [11f] (cyclo(AAFP[X17]I)) | ×10⁻⁶ cm/s | 1.1 |
| CC(C)C[C@@H]1NC(=O)[C@H](Cc2ccc(O)cc2)NC(=S)[C@H]2CCCN2C(=O)[C@H](CC(C)C)NC(=O)[C@H](CC(C)C)NC(=O)[C@@H](CC(C)C)NC1=O [10d] (cyclo(LL[X6]L[dL])) | ×10⁻⁶ cm/s | 4.2 |
